B1: FCHSD1 (parent)
chain: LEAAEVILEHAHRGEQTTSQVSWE

- Variants of: B1
- assayRemarks: protein stability index of a GFP-peptide fusion (GPS, HEK-293T) (PSI 1-6); higher = more stable;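 also: lentivirally expressed fusions sorted by FACS into six bins by GFP to DsRed ratio, PSI derived from sequencing read proportions per bin multiplied by bin number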
- protocolConditions: c terminus: a fixed tail appended
What protein stability index was measured for each of the following?
Respond using a number only.

Requested read-out: protein stability index. Entry: LEAAEVILEHAHRGEQTTSFVSWE [Q20F] 3.76

Thanks! And DEAAEVILEHAHRGEQTTSQVSWE [L1D] ? 4.42

Next entry: LEAADVILEHAHRGEQTTSQVSWE [E5D] 4.31

Next entry: LEHAEVILEHAHRGEQTTSQVSWE [A3H] 3.86

Next up: LEAAEVILEHAHLGEQTTSQVSWE [R13L] 4.13

Note, next up: LEAAEVILEVAHRGEQTTSQVSWE [H10V] 3.92

Thanks! And LEAAEVILEHAHRGEQYTSQVSWE [T17Y] ? 3.32
